Cited source for all entries: ChEMBL document CHEMBL1961873

tgt: Ribosomal protein S6 kinase alpha-6 (Homo sapiens)
settings: at 0.1 µM
observable: inhibition (%)
Value expressed in %; do not type the unit.

Here are 5 molecules together with their reported answers.
chemical_smiles=NS(=O)(=O)c1ccc(Nc2ncc(-c3ccccc3)o2)cc1 observed_result=1.15
chemical_smiles=COC(=O)Nc1nc2ccc(Oc3ccc(NC(=O)Nc4cccc(Cl)c4)cc3)cc2[nH]1 observed_result=-0.53
chemical_smiles=COc1ccc(-c2cc(-c3c[nH]nc3-c3ccccn3)ccn2)cc1 observed_result=1.53
chemical_smiles=CNC(=O)c1cccc(C#Cc2cncnc2Nc2ccc(OCc3cccc(F)c3)c(Cl)c2)c1 observed_result=-0.53
chemical_smiles=COc1ccc2c(-c3ccnc(Nc4cccc(OC(F)(F)F)c4)n3)cnn2n1 observed_result=1.53

Query: Sample COc1cc2c(cc1Nc1nc(Nc3ccsc3C(N)=O)c3cc[nH]c3n1)N(C(=O)CN(C)C)CCC2(C)C — what was its inhibition?
Reply: 11.5

Query: Try this molecule too: CCNC(=O)O[C@H]1CN[C@H](C#Cc2cc3ncnc(Nc4ccc(OCc5cccc(F)c5)c(Cl)c4)c3s2)C1
Reply: 1.4

Query: Try this molecule too: CCn1c(-c2nonc2N)nc2ccccc21
Reply: 1.71

Query: Try this molecule too: CNC(=O)c1cc(-c2ccc(F)cc2)cc(-c2ccc(S(=O)(=O)N3CCCC3)cc2)c1N
Reply: 0.1

Query: Try this molecule too: COc1ccc2[nH]c3c4[nH]c5ccc(OC)cc5c4c4c(c3c2c1)C(=O)NC4=O
Reply: 58.2

###

Each entry below carries its recorded inhibition.
tgt: Tyrosine-protein kinase CSK (Homo sapiens) (UniProt P41240)
Sequence (P41240 2-450 limits assumed): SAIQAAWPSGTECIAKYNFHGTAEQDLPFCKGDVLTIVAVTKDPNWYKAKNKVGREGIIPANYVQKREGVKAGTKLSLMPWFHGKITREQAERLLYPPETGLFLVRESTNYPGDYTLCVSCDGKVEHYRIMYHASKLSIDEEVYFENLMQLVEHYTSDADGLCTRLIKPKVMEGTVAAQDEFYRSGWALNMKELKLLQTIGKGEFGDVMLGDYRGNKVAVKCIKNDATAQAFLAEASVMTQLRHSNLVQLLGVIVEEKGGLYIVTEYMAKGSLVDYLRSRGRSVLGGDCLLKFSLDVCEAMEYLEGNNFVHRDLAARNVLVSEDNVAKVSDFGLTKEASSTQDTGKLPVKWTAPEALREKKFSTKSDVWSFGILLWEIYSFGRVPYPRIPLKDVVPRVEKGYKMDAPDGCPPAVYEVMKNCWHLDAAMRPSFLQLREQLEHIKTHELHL
settings: at 1 µM
Value expressed in %; do not type the unit.

Here are 5 molecules together with their reported answers.
chemical_smiles=COC(=O)Nc1nc2ccc(S(=O)(=O)c3ccc(NC(=O)Nc4cc(C(F)(F)F)ccc4F)cc3)cc2[nH]1 observed_result=-1.83
chemical_smiles=CS(=O)(=O)CCNCc1ccc(-c2ccc3ncnc(Nc4ccc(OCc5ccccc5)c(C(F)(F)F)c4)c3c2)o1 observed_result=3.7
chemical_smiles=COc1ccc(-c2nn3ncccc3c2-c2ccnc(Nc3ccc4c(c3)OCCO4)n2)cc1 observed_result=2.25
chemical_smiles=COc1cc(/C=N/Nc2ncnc3[nH]ncc23)ccc1O observed_result=24.9
chemical_smiles=Cc1ccc(O)cc1Nc1ccnc2cc(-c3ccccn3)ccc12 observed_result=57.1

Proceed to the following item.
Query: Sample Cc1ccc2c(-c3ccnc(Nc4ccccc4)n3)c(-c3ccc(F)cc3)nn2n1 — what was its inhibition?
Reply: 14.5

###

Each entry below carries its recorded inhibition.
tgt: MAP kinase-activated protein kinase 2 (Homo sapiens) (UniProt P49137)
Sequence (P49137 whole entry, looked up): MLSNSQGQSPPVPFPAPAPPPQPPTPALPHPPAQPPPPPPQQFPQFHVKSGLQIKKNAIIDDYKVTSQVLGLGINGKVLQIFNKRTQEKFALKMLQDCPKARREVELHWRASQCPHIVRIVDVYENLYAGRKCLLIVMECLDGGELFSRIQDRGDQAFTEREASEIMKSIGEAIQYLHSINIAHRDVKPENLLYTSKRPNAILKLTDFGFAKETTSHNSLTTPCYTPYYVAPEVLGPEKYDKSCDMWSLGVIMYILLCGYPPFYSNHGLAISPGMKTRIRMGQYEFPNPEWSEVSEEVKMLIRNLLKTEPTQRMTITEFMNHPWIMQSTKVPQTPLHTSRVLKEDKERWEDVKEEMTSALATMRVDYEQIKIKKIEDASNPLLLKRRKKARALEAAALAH
settings: at 1 µM
Value expressed in %; do not type the unit.

Query: Sample Fc1ccc(-c2cc(-c3c[nH]nc3-c3ccccn3)ccn2)cc1 — what was its inhibition?
Reply: 2.72

Query: Try this compound too: CCn1c(-c2nonc2N)nc2cnc(Oc3cccc(NC(=O)c4ccc(N(C)C)cc4)c3)cc21
Reply: 0.16

Query: Try this compound too: Cc1ccc2c(-c3ccnc(Nc4ccccc4)n3)c(-c3ccc(F)cc3)nn2n1
Reply: 1.49

Query: Try this compound too: CS(=O)(=O)CCNCc1ccc(-c2ccc3ncnc(Nc4ccc(OCc5ccccc5)c(C(F)(F)F)c4)c3c2)o1
Reply: 3.73

Query: Try this compound too: Clc1ccc(-c2nn3ncccc3c2-c2ccnc(Nc3ccccc3)n2)cc1
Reply: -0.09
